Reference source for all entries: PubChem BioAssay (NCI)

Recorded measurements of growth, one per entry
# Tested on: U251 CNS
# ASSAY_OVERVIEW: NCI-60 one-dose screen, 48 h (100 = growth as untreated, 0 = no growth, -100 = all killed)
# CONDITION_LABEL: 10 µM unless noted
About 83,000 compounds went through this panel and 20% of them were active in at least one assay; those are over-represented in the sample as a whole.

{"MOLECULE": "CCN1CCN(c2nc(NNC(=O)c3ccccc3)nc(N3CCN(C(c4ccccc4)c4ccccc4)CC3)n2)CC1", "growth (%)": 49.4}
{"MOLECULE": "CC(C)(C)n1cc(-c2ccnc(NCCCNS(=O)(=O)c3cccc(F)c3)c2)c(-c2cccc(O)c2)n1", "growth (%)": 49.9}
{"MOLECULE": "C=C(C)[C@@H]1CC[C@]2(C(=O)N3CCNCC3)CC[C@]3(C)[C@H](CC[C@@H]4[C@@]5(C)C/C(=C/c6ccncc6)C(=O)C(C)(C)[C@@H]5CC[C@]43C)[C@@H]12", "growth (%)": 101}
{"MOLECULE": "Cc1cccc(/C=N/Nc2cc(C)c3cccc(C)c3n2)n1", "growth (%)": 78.6}
{"MOLECULE": "COc1cc(/C=C/c2cc(/C=C/c3ccc(O)c(OC)c3)n(C(N)=O)n2)ccc1O", "growth (%)": -10.9}
{"MOLECULE": "CCCCN(CCCC)c1ccc(C(=N)c2ccc(N(CCCC)CCCC)cc2)cc1", "growth (%)": -92.9}
{"MOLECULE": "NC1=NN(O)C2=CC([N+](=O)[O-])C=CC2=N1 (centres undefined)", "growth (%)": 109}
{"MOLECULE": "COc1ccc(S(=O)(=O)NCCCNc2nccc(-n3ccc4cccnc43)n2)cc1", "growth (%)": 92.5}
{"MOLECULE": "CCn1c2ccccc2c2cc(NC(=O)Nc3ccc([N+](=O)[O-])cc3C)ccc21", "growth (%)": 31.5}

* * *

# Test system: RPMI-8226 leukemia
# ASSAY_OVERVIEW: NCI-60 one-dose screen, 48 h (100 = growth as untreated, 0 = no growth, -100 = all killed)
# CONDITION_LABEL: 10 µM unless noted
About 83,000 compounds went through this panel and 20% of them were active in at least one assay; those are over-represented in the sample as a whole.

{"COMPOUND": "S=c1[nH]nc(-c2cc3ccc2CCc2ccc(cc2)CC3)n1-c1ccccc1", "UNIT_ABBREVIATION": "%", "growth": 94.5}
{"COMPOUND": "CN(C)CCCN(c1nc(C(Cl)(Cl)Cl)ns1)c1nc(C(Cl)(Cl)Cl)ns1", "UNIT_ABBREVIATION": "%", "growth": 9.37}
{"COMPOUND": "O=S(=O)(CC(O)(c1ccccc1)c1ccccc1)CC(O)(c1ccccc1)c1ccccc1", "UNIT_ABBREVIATION": "%", "growth": 94.7}
{"COMPOUND": "O=[N+]([O-])c1cccc(-c2nc3sccn3c2-c2ccnc(NCCCNS(=O)(=O)c3ccc(Cl)cc3)n2)c1", "UNIT_ABBREVIATION": "%", "growth": 16.2}
{"COMPOUND": "O=C1c2ccccc2-c2ccccc2C1(Cl)Cl", "UNIT_ABBREVIATION": "%", "growth": -10.8}
{"COMPOUND": "Cc1csc(NC(c2ccc(Br)cc2)c2c(C)nc3ccccn23)n1 (stereo not given)", "UNIT_ABBREVIATION": "%", "growth": 74.7}
{"COMPOUND": "CN(C)CCN1C(=O)c2ccc3c4c(ccc(c24)C1=O)C(=O)N(CCN=C=S)C3=O", "UNIT_ABBREVIATION": "%", "growth": -45}
{"COMPOUND": "N/C(=N\\C(N)=N\\c1nc2ccccc2s1)c1ccncc1", "UNIT_ABBREVIATION": "%", "growth": 45.8}
{"COMPOUND": "NC(=N\\N=C/c1ccc(O)cc1)/C(N)=N\\N=C/c1ccc(O)cc1", "UNIT_ABBREVIATION": "%", "growth": 65.3}
{"COMPOUND": "CCN(CC)CCOc1ccc(/C(=C(/C)c2ccccc2)c2ccc(OC(C)=O)cc2)cc1", "UNIT_ABBREVIATION": "%", "growth": 100}

* * *

# Tested on: SNB-75 CNS
# ASSAY_OVERVIEW: NCI-60 one-dose screen, 48 h (100 = growth as untreated, 0 = no growth, -100 = all killed)
# CONDITION_LABEL: 10 µM
# Method: Growth inhibition of the SNB-75 human tumor cell line is measured as a screen for anti-cancer activity. Cells are grown in 96 well plates and exposed to the test compound for 48 hours. Compounds are tested at a single concentration, which is 10^-5 M for most compounds. The reported endpoint is percent growth (GI% or GIPRCNT), where numbers from 0 - 100% represent growth inhibition, and numbers from -100% - 0 represent cell death. For example, a value of 40 represents 60% growth inhibition. […]
Compounds without any hit were thinned out: in the full panel of roughly 83,000, 20% have a hit.
Response field label: string, one of Yes (growth strictly below 60%) or No.

{"COMPOUND": "O=c1cc/c(=N\\Nc2ccccc2)c(=O)/c1=N/Nc1ccccc1", "DISCRETE_LABEL": "No"}
{"COMPOUND": "CNc1ccc(Br)c2c1C(=O)c1ccccc1C2=O", "DISCRETE_LABEL": "No"}
{"COMPOUND": "Fc1ccc(Nc2ncnc3ccc(-c4cnc5[nH]ccc5c4)cc23)cc1Cl", "DISCRETE_LABEL": "Yes"}
{"COMPOUND": "CCCCCCCCCCCCCCCCNC(=O)OC(C)C", "DISCRETE_LABEL": "No"}
{"COMPOUND": "COc1ccc(-c2c(N)n[nH]c2-c2cc(OC)c3c(c2)OCCO3)cc1", "DISCRETE_LABEL": "Yes"}
{"COMPOUND": "COc1ccc2c(c1)OC1=C(C(=O)OC1)C2c1cc(OC)c2c(c1)OCO2 (stereo unspecified)", "DISCRETE_LABEL": "Yes"}

* * *

# Test system: MALME-3M melanoma
# ASSAY_OVERVIEW: NCI-60 one-dose screen, 48 h (100 = growth as untreated, 0 = no growth, -100 = all killed)
# CONDITION_LABEL: 10 µM unless noted
Compounds without any hit were thinned out: in the full panel of roughly 83,000, 20% have a hit.
VALUE_TYPE: growth (%)

{"COMPOUND": "COc1ccc2c(c1)cn1c3ccc(OC)cc3[nH]c(=O)c21", "TARGET_OR_TEST_SYSTEM": "MALME-3M melanoma", "VALUE_MEASURED": 42.1}
{"COMPOUND": "COc1ccc(-c2c(N)n[nH]c2-c2cc(OC)c(OC)c(OC)c2)cc1", "TARGET_OR_TEST_SYSTEM": "MALME-3M melanoma", "VALUE_MEASURED": 39.3}
{"COMPOUND": "CCC(=O)OC1=CN2C(=NC(c3ccc(N)cc3)=CC2c2cc(OC)c(OC)c(OC)c2)S1 (stereo unspecified)", "TARGET_OR_TEST_SYSTEM": "MALME-3M melanoma", "VALUE_MEASURED": 63.7}
{"COMPOUND": "Cn1cc(-c2cnc3ccc(NC(=O)Nc4ccc(F)c(Br)c4)cc3n2)cn1", "TARGET_OR_TEST_SYSTEM": "MALME-3M melanoma", "VALUE_MEASURED": 35.9}
{"COMPOUND": "COc1cc(C(=O)/C=C/c2c(C)n([O-])c3ccc(C(F)(F)F)cc3[n+]2=O)cc(OC)c1OC", "TARGET_OR_TEST_SYSTEM": "MALME-3M melanoma", "VALUE_MEASURED": 106}
{"COMPOUND": "COc1ccc(C(=O)c2cc(OC)c(OC)c(OC)c2OC)cc1O", "TARGET_OR_TEST_SYSTEM": "MALME-3M melanoma", "VALUE_MEASURED": 23}
{"COMPOUND": "CCCCC(CC)OC(=O)C(Br)CC (stereo unspecified)", "TARGET_OR_TEST_SYSTEM": "MALME-3M melanoma", "VALUE_MEASURED": 99.9}
{"COMPOUND": "COc1cc(-c2nn(C(=O)NS(=O)(=O)c3ccccc3)cc2-c2ccncc2)ccc1Cl", "TARGET_OR_TEST_SYSTEM": "MALME-3M melanoma", "VALUE_MEASURED": 87.3}
{"COMPOUND": "O=Nc1c(-c2cccc([N+](=O)[O-])c2)nc2ncccn12", "TARGET_OR_TEST_SYSTEM": "MALME-3M melanoma", "VALUE_MEASURED": 85.2}
{"COMPOUND": "O=C(NNC(=O)N1c2ccccc2C=Cc2ccccc21)c1ccc2ccccc2c1", "TARGET_OR_TEST_SYSTEM": "MALME-3M melanoma", "VALUE_MEASURED": 95.6}
{"COMPOUND": "CN(C)CC(C(=O)c1ccccc1)c1ccccc1 (stereo unspecified)", "TARGET_OR_TEST_SYSTEM": "MALME-3M melanoma", "VALUE_MEASURED": 57.7}
{"COMPOUND": "Nc1nnc(-c2ccc3ccccc3c2O)o1", "TARGET_OR_TEST_SYSTEM": "MALME-3M melanoma", "VALUE_MEASURED": 89.1}
{"COMPOUND": "CCCN=C1NC(=O)/C(=C/c2nc(-c3ccc(OC)cc3)n3ccccc23)S1", "TARGET_OR_TEST_SYSTEM": "MALME-3M melanoma", "VALUE_MEASURED": 95.3}
{"COMPOUND": "COc1cccc(/C=C2\\Oc3cc(OCCCN4CCCC4)ccc3C2=O)c1", "TARGET_OR_TEST_SYSTEM": "MALME-3M melanoma", "VALUE_MEASURED": 98.9}
{"COMPOUND": "COc1cc(/C=C/C(=O)c2c(C)nc3ccccc3c2C)ccc1OCCCCOc1cc2c(cc1OC)C(=O)N1CCC[C@H]1C=N2", "TARGET_OR_TEST_SYSTEM": "MALME-3M melanoma", "VALUE_MEASURED": -81.3}
{"COMPOUND": "N/C(=N\\C(N)=N\\c1nc2ccccc2s1)c1cccc(Br)c1", "TARGET_OR_TEST_SYSTEM": "MALME-3M melanoma", "VALUE_MEASURED": 101}
{"COMPOUND": "O=[N+]([O-])c1cccc(-c2nc3sccn3c2-c2ccnc(NCCCNS(=O)(=O)c3ccc(Cl)cc3)n2)c1", "TARGET_OR_TEST_SYSTEM": "MALME-3M melanoma", "VALUE_MEASURED": 62.8}
{"COMPOUND": "C1=Cc2ccccc2N(c2nnc(-c3ccccc3)o2)c2ccccc21", "TARGET_OR_TEST_SYSTEM": "MALME-3M melanoma", "VALUE_MEASURED": 109}
{"COMPOUND": "O=C(O)c1nc(-c2ccccc2)oc1N1CCOCC1", "TARGET_OR_TEST_SYSTEM": "MALME-3M melanoma", "VALUE_MEASURED": 120}
{"COMPOUND": "C=C1CCC2C3(C)COC(C)(C)OC3CCC2(C)C1C/C=C1/C(=O)OCC1Oc1ccccc1OC (stereo unspecified)", "TARGET_OR_TEST_SYSTEM": "MALME-3M melanoma", "VALUE_MEASURED": 112}
{"COMPOUND": "CC(C)CSc1nc(NN)c(C#N)c(-c2ccccc2)n1", "TARGET_OR_TEST_SYSTEM": "MALME-3M melanoma", "VALUE_MEASURED": 118}
